target: T1, ICAM-1 protein antigen (R&D System) (human, UniProt P05362 28-480); test: ELISA, ICAM-1 coated 100 ng/well, anti-human Ig-HRP
T1 construct: The assay paragraphs say only 'ICAM-1 (R&D System)'; also called antigen ICAM-1; ICAM-1 antigen
T1 sequence (P05362 28-480 limits assumed): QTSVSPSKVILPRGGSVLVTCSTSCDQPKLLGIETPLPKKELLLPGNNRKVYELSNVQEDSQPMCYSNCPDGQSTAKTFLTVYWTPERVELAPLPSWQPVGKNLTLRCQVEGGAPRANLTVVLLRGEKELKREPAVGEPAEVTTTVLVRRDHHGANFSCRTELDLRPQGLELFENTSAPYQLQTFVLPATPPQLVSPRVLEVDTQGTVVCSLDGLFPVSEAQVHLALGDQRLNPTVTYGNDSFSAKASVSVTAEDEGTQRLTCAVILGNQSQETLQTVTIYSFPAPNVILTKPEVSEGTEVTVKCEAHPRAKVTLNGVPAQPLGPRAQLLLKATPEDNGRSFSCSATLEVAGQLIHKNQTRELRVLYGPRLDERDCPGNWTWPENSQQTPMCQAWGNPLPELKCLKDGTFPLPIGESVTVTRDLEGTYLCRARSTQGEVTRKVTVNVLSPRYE
OBSERVABLE: OD 450 nm at 40 ng/ml antibody

INPUT: Looking for the measured OD 450 nm at 40 ng/ml antibody of humanized anti-ICAM-1 antibody H17L3 (VH17 + VL3), human IgG4/kappa (antibody, V domains shown, The Arg at the VL/CL junction is in neither entry) VH: QVQLVQSGAEVKKPGASVKISCKGSGYTFTDYALHWVRQAPGQRLEWMGVISTYSGNTDYNQKFRGRATITVDTSASTAYMELSSLRSEDTAVYYCARSLYFGSSGFDYWGQGTALTVSS VL: DVVLTQTPLSSPVTLGQPASISCRSSQTLVYRNGNTYLHWYLQRAGQPPRLLIYKVSNRFSGVPDRFSGSGAGTDFTLKISRVEAEDVGVYFCSQNTHFPYTFGGGTKLEIKT , can you help?
OUTPUT: 0.848 OD (450 nm)

INPUT: Next up: chimeric anti-ICAM-1 antibody SI9 (mouse SI9 variable regions, human IgG4/kappa constant regions) (antibody, the hinge lies in the heavy chain; also called chimeric antibody SI9; SI9 Chimeric; not shown: human IgG4 heavy chain constant region, GenBank AIC59040.1 (printed), hinge 'CPSCP' modified to 'CPPCP' (position not pr); human kappa light chain constant region, GenBank AAA58989.1 (printed)) heavy: QVQLQQSGAELVRPGVSVKISCKGSGYTFTDYALHWVKQSHAKSLEWIGVISTYSGNTDYNQKFRGKATMTVDKSSTTAYLELARLTSEDSAIHYCARSLYFGSSGFDYWGQGTALTVSS light: DVVLTQTPLSLPVNLGDQASISCRSSQTLVYRNGNTYLHWYLQKAGQSPKLLIYKVSNRFSGVPDRFSGSGSGTDFTLKISRVEAEDLGVYFCSQNTHFPYTFGGGTKIKR
OUTPUT: 0.724 OD (450 nm)

INPUT: Follow-up item: humanized anti-ICAM-1 antibody H17L4 (VH17 + VL4), human IgG4/kappa (antibody, V domains shown, The Arg at the VL/CL junction is in neither entry; also called DNP007; DNP007 antibody (H17L4 antibody)) VH: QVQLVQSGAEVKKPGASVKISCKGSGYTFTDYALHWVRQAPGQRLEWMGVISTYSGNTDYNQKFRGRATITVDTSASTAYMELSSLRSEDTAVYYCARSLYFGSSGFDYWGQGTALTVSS VL: DVVLTQTPLSSPVTLGQPASISCRSSQTLVYRNGNTYLHWYQQRPGQPPRLLIYKVSNRFSGVPDRFSGSGAGTDFTLKISRVEAEDVGVYFCSQNTHFPYTFGGGTKLEIKT
OUTPUT: 0.983 OD (450 nm)
